The measured values listed here are drawn from patent US20090047335A1.

EXPERIMENT: in vitro
Assay type: in vitro ADME, bovine
CONDITION LABEL: serum
MEASURE: metabolised at 48 h, 100 μM (%)

INSERT INTO measurements (chemical_structure, measure, scale_unit, endpoint_result) VALUES
  ('CC(C)C[C@H](NC(=O)[C@H](CO)NC(=O)[C@@H](NC(=O)[C@H](C)N)[C@@H](C)O)C(=O)N1CCC[C@H]1C(=O)N1CCC[C@H]1C(=O)N[C@@H](Cc1c[nH]cn1)C(=O)N[C@@H](CO)C(=O)N[C@@H](CO)C(=O)N[C@@H](CCC(N)=O)C(=O)N[C@@H](CO)C(=O)N1CCC[C@H]1C(=O)O', 'metabolised at 48 h, 100 μM', '%', 60);
